Kindly state Average Area Under the Viability Curve (AUC), AUC norm value for each of the entries shown.
- System: SNU668
- Assay: Cell viability drug screen, 12-point dose-response AUC
- Type: cell-based, human
- Protocol conditions: SNU668 cells (SEM subtype); 72 hours
Where a name gives a salt, the structure may show the parent alone.
Kindly provide the number alone.

State its Average Area Under the Viability Curve (AUC), AUC norm value: CCC[C@H](NC(=O)/C(C#N)=C/c1cccc(Br)n1)c1ccccc1
0.1607

State its Average Area Under the Viability Curve (AUC), AUC norm value: Cn1c(=O)n(-c2ccc(C(C)(C)C#N)cc2)c2c3cc(-c4cnc5ccccc5c4)ccc3ncc21
1.258

State its Average Area Under the Viability Curve (AUC), AUC norm value: CCCCC(CC)CNC(=N)NC(=N)NCCCCCCNC(=N)NC(=N)NCC(CC)CCCC (stereo not drawn) [Alexidine HCl]
−0.1375

State its Average Area Under the Viability Curve (AUC), AUC norm value: CC(C)C[C@H](NC(=O)[C@H](CCc1ccccc1)NC(=O)CN1CCOCC1)C(=O)N[C@@H](Cc1ccccc1)C(=O)N[C@@H](CC(C)C)C(=O)[C@@]1(C)CO1
1.899

State its Average Area Under the Viability Curve (AUC), AUC norm value: COC1=CC(c2cc3ccccc3[nH]2)=N/C1=C\c1[nH]c(C)cc1C [Obatoclax mesylate (GX15-070), Obatoclax mesylate]
−0.2715

State its Average Area Under the Viability Curve (AUC), AUC norm value: CO[C@@H](C(=O)N1Cc2n[nH]c(NC(=O)c3ccc(N4CCN(C)CC4)cc3)c2C1)c1ccccc1
1.049
